From: patent US20230391772A1

test.target: KRAS(G12C) (Homo sapiens, UniProt P01116, G12C)
Sequence (P01116 1-188 isoform P01116-2 G12C): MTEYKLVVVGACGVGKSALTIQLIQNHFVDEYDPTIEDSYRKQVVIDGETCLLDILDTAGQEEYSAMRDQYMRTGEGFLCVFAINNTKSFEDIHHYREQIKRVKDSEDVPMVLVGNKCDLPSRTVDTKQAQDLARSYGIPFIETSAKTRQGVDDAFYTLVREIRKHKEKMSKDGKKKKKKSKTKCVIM
assay.procedure: KRAS(G12C)/SOS1 homogeneous time-resolved fluorescence (HTRF) assay
condition.info: absence of GTP, 4° C. for 3 hr, read-out: KRAS (G12C) binding
Reported IC50 is given for each of the following compounds.

Notebook: `C=CC(=O)N1CCN(c2nc(OC[C@@H]3C[C@H](N4CCC(C(=O)N5CCN(Cc6ccc(-n7c(O)nnc7-c7cc(C)c(O)cc7O)cc6)CC5)CC4)CN3C)nc3c2CCN(c2cccc4ccccc24)C3)C[C@@H]1CC#N` , IC50 read as < 100 nM

Notebook: `C=CC(=O)N1CCN(c2nc(OCCN3CCN(C(=O)C4CCN(Cc5ccc(-n6c(C(=O)NCC(F)(F)F)nnc6-c6cc(C(C)C)c(O)cc6O)cc5)CC4)C[C@H]3CN(C)C)nc3c2CCN(c2cccc4cccc(Cl)c24)C3)C[C@@H]1CC#N` , IC50 read as 100 to 1000 nM

New cases:
Notebook: `C=CC(=O)N1CCN(c2nc(OC[C@@H]3C[C@H](N4CCC5(CCN(Cc6ccc(-n7c(O)nnc7-c7cc(C)c(O)cc7O)cc6)CC5)CC4)CN3C)nc3c2CCN(c2cccc4cccc(Cl)c24)C3)C[C@@H]1CC#N` , IC50 read as < 100 nM

Notebook: `C=CC(=O)N1CCN(c2nc(OCCN3CCC(C(=O)N4CCN(CCNC(=O)c5nnc(-c6cc(C(C)C)c(O)cc6O)n5-c5ccccc5)CC4)CC3)nc3c2CCN(c2cccc4cccc(Cl)c24)C3)C[C@@H]1CC#N` , IC50 read as < 100 nM

---

test.target: HSP90a protein (Homo sapiens)
Construct: purchased BPS Bioscience 50298
assay.procedure: HSP90α-binding fluorescent polarization (FP) assay, BODIPY-labeled RNK04010 probe
condition.info: FP competition with RNK04010 (BODIPY-labeled), 5 nM, 300 min at 25° C.
metric.name: IC50

Notebook: C=CC(=O)N1CCN(c2nc(NCCC(=O)N3CCC(CN4CCN(Cc5ccc(-n6c(O)nnc6-c6cc(CC)c(O)cc6O)cc5F)CC4)CC3)nc3c2CCN(c2cc(O)cc4ccccc24)C3)CC1 [Compound 8, trifluoroacetic acid] , IC50 read as 100 to 1000 nM

Turning now to a further record.
Notebook: C=CC(=O)N1CCN(c2nc(OC[C@@H]3C[C@H](N4CCC(C(=O)N5CCN(Cc6ccc(-n7c(C(=O)NCC(F)(F)F)nnc7-c7cc(C(C)C)c(O)cc7O)cc6)CC5)CC4)CN3C)nc3c2CCN(c2cccc4cccc(Cl)c24)C3)C[C@@H]1CC#N [Compound 314] , IC50 read as < 100 nM

---

Test system: NCI-H358 human non-small cell lung cancer
assay.procedure: NCI-H358 CCK-8 proliferation assay
Type: cell-based
condition.info: NCI-H358 cells, 72 hr
pEC50: −log10 of the molar value.
metric.name: pEC50

Below, each entry is followed by its recorded pEC50 result.
Notebook: `C=C(F)C(=O)N1CCN(c2nc(N3CCN(Cc4ccc(-n5c(O)nnc5-c5cc(CC)c(O)cc5O)cc4)CC3)nc3c2CCN(c2cccc4cccc(Cl)c24)C3)C[C@@H]1CC#N` , pEC50 read as < 6.00

Notebook: `CCC(=O)N1CCN(c2nc(OCCC(=O)NCCc3ccc(CN4CCC(Cc5ccc(-n6c(C(=O)NCC(F)(F)F)nnc6-c6cc(C(C)C)c(O)cc6O)cc5)CC4)cc3)nc3c2CCN(c2cc(O)cc4ccccc24)C3)CC1` , pEC50 read as 6.00 to 7.00

New cases:
Notebook: `CCC(=O)N1CCN(c2nc(NCCC(=O)N3CCC(CN4CCN(Cc5ccc(-n6c(C(=O)NC7(C)CC7)nnc6-c6cc(CC)c(O)cc6O)cc5)CC4)CC3)nc3c2CCN(c2cc(O)cc4ccccc24)C3)CC1` , pEC50 read as > 7.00

Notebook: C=CC(=O)N1CCN(C2CN(c3cc(O)cc4ccccc34)Cc3nc(NCCC(=O)NCCOCCOCCOc4ccc(-n5c(O)nnc5-c5cc(C(C)C)c(O)cc5O)cc4)ncc32)CC1 (stereo not shown) , pEC50 read as < 6.00

---

test.target: HSP90a protein (Homo sapiens)
Construct: purchased BPS Bioscience 50298
assay.procedure: HSP90α-binding fluorescent polarization (FP) assay, BODIPY-labeled RNK04010 probe
condition.info: FP competition with RNK04010 (BODIPY-labeled), 5 nM, 300 min at 25° C.
pIC50: −log10 of the molar value.
Reported pIC50 is given for each of the following compounds.

Below, each entry is followed by its recorded pIC50 result.
Notebook: `C=CC(=O)N1CCN(c2nc(OC[C@@H]3CCN(C(=O)c4cc(C(C)C)c(O)cc4O)C3)nc3c2CCN(c2cccc4cccc(Cl)c24)C3)C[C@@H]1CC#N` , pIC50 read as < 6.00

Notebook: `C=CC(=O)N1CCN(c2nc(OC[C@@H]3CN(C(=O)C4CCN(Cc5ccc(-n6c(C(N)=O)nnc6-c6cc(C(C)C)c(O)cc6O)cc5)CC4)CCN3C)nc3c2CCN(c2cccc4cccc(Cl)c24)C3)C[C@@H]1CC#N` , pIC50 read as > 7.00

Notebook: `C=CC(=O)N1CCN(c2nc(OC[C@@H]3C[C@H](N4CCC5(CCN(C(=O)C6CCN(Cc7ccc(-n8c(O)nnc8-c8cc(C(C)C)c(O)cc8O)cc7)CC6)CC5)CC4)CN3C)nc3c2CCN(c2cccc4cccc(Cl)c24)C3)C[C@@H]1CC#N` , pIC50 read as > 7.00

New cases:
Notebook: `C=C(F)C(=O)N1CCN(c2nc(OC[C@@H]3CCN(C(=O)c4cc(CC)c(O)cc4O)C3)nc3c2CCN(c2cccc4cccc(Cl)c24)C3)C[C@@H]1CC#N` , pIC50 read as < 6.00

Notebook: `C=CC(=O)N1CCN(c2nc(OCCN3CCC4(CC3)CCN(Cc3cc(C(C)C)c(O)cc3O)CC4)nc3c2CCN(c2cccc4cccc(Cl)c24)C3)C[C@@H]1CC#N` , pIC50 read as 6.00 to 7.00

---

Reported IC50 is given for each of the following compounds.
test.target: KRAS(G12C) (Homo sapiens, UniProt P01116, G12C)
assay.procedure: KRAS(G12C)/SOS1 homogeneous time-resolved fluorescence (HTRF) assay
condition.info: absence of GTP, 4° C. for 3 hr, read-out: KRAS (G12C) binding

Below, each entry is followed by its recorded IC50 result.
Log: KRAS(G12C) (Homo sapiens, UniProt P01116, G12C), compound `C=CC(=O)N1CCN(c2nc(OC[C@@H]3C[C@H](N4CCC(C(=O)N5CCN(Cc6ccc(-n7c(C(=O)NCC(F)(F)F)nnc7-c7cc(C)c(O)cc7O)cc6)CC5)CC4)CN3C)nc3c2CCN(c2cccc4cccc(Cl)c24)C3)C[C@@H]1CC#N` , IC50 = < 100 nM

Log: KRAS(G12C) (Homo sapiens, UniProt P01116, G12C), compound `C=CC(=O)N1CCN(c2nc(OC[C@@H]3C[C@H](C(=O)NCCOCCOc4ccc(-n5c(O)nnc5-c5cc(CC)c(O)cc5O)cc4)CN3C)nc3c2CCN(c2cccc4cccc(Cl)c24)C3)C[C@@H]1CC#N` , IC50 = < 100 nM

New cases:
Log: KRAS(G12C) (Homo sapiens, UniProt P01116, G12C), compound C=CC(=O)N1CCN(c2nc(OCC3CCC(CNCc4ccc(-n5c(O)nnc5-c5cc(CC)c(O)cc5O)cc4)N3)nc3c2CCN(c2cccc4cccc(Cl)c24)C3)C[C@@H]1CC#N (stereo partly shown) , IC50 = 100 to 1000 nM

Log: KRAS(G12C) (Homo sapiens, UniProt P01116, G12C), compound `C=CC(=O)N1CCN(c2nc(OC[C@@H]3C[C@H](N4CCC(C(=O)NCCc5ccc(-n6c(O)nnc6-c6cc(C(C)C)c(O)cc6O)cc5)CC4)CN3C)nc3c2CCN(c2cccc4cccc(Cl)c24)C3)C[C@@H]1CC#N` , IC50 = < 100 nM

---

test.target: HSP90a protein (Homo sapiens, UniProt P07900)
Construct: purchased BPS Bioscience 50298
assay.procedure: HSP90α-binding fluorescent polarization (FP) assay, BODIPY-labeled RNK04010 probe
condition.info: FP competition with RNK04010 (BODIPY-labeled), 5 nM, 300 min at 25° C.
pIC50: −log10 of the molar value.
metric.name: pIC50

Notebook: C=CC(=O)N1CCN(c2nc(NCCC(=O)NCc3ccc(-n4c(O)nnc4-c4cc(C(C)C)c(O)cc4O)cc3C(F)(F)F)nc3c2CCN(c2cccc4ccccc24)C3)C[C@H]1CC#N [Compound 82, trifluoroacetic acid] , pIC50 read as 6.00 to 7.00

Turning now to a further record.
Notebook: CCC(=O)N1CCN(c2nc(NCCC(=O)N3CCC(CN4CCN(Cc5ccc(-n6c(C(=O)NC7(C)CC7)nnc6-c6cc(CC)c(O)cc6O)cc5)CC4)CC3)nc3c2CCN(c2cc(O)cc4ccccc24)C3)CC1 [Compound 120, trifluoroacetic acid] , pIC50 read as 6.00 to 7.00
